Catalogue of pIC50 values
- experimental-system: Cholinesterase (Equus caballus, UniProt P81908)
- Sequence (P81908 whole entry): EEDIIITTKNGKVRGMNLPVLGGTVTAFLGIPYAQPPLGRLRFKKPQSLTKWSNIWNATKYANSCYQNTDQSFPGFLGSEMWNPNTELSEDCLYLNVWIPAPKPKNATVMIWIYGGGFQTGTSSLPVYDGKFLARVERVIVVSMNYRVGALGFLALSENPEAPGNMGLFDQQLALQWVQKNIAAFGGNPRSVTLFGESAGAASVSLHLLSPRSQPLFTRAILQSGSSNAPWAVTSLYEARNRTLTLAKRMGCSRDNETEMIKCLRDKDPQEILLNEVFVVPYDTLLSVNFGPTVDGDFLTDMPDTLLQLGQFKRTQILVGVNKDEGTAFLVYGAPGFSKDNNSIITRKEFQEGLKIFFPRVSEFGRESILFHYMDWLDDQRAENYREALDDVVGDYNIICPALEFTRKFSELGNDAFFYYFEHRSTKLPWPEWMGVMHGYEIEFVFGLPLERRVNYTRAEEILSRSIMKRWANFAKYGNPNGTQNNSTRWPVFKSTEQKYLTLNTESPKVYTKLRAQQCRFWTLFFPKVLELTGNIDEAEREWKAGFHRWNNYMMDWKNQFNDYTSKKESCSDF
- assay-info: Inhibition of equine serum BChE using butyrylthiocholine iodide as substrate by spectrophotometer analysis
Scale: negative log10 of molar concentration, which is what pIC50 denotes.

// known answers, use as guide
compound-structure	observed-measurement
O=C(COc1ccc2ccc(=O)oc2c1)N1CCN(c2ccc(Cl)c(Cl)c2)CC1	3.92
Cc1cc(=O)oc2cc(OCCCC(=O)N3CCN(c4ccc(Cl)c(Cl)c4)CC3)ccc12	3.60
Cc1cc(=O)oc2cc(OCCCC(=O)N3CCN(c4ccccc4F)CC3)ccc12	4.54
O=C(CCCOc1ccc2ccc(=O)oc2c1)N1CCN(c2ccccc2)CC1	3.92
Cc1cc(=O)oc2cc(OCCCC(=O)N3CCN(c4ccc(F)cc4)CC3)ccc12	4.62

Asked: Provide measured pIC50 on Cholinesterase (Equus caballus, UniProt P81908) for O=C(COc1ccc2ccc(=O)oc2c1)NC1CCN(Cc2ccccc2)CC1 please.
Given back: 4.38

Asked: State the measured pIC50 (Cholinesterase (Equus caballus, UniProt P81908)) of O=C(COc1ccc2ccc(=O)oc2c1)N1CCN(c2ccccc2F)CC1
Given back: 4.07

Asked: Enter pIC50 (test system Cholinesterase (Equus caballus, UniProt P81908)) for O=C(CCCOc1ccc2ccc(=O)oc2c1)N1CCN(c2ccc(Cl)c(Cl)c2)CC1
Given back: 4.10

Asked: Give pIC50; test system Cholinesterase (Equus caballus, UniProt P81908); compound O=C(CCCOc1ccc2ccc(=O)oc2c1)N1CCC(O)(c2ccc(Br)cc2)CC1
Given back: 3.74

Asked: Give pIC50 for O=C(CCCOc1ccc2ccc(=O)oc2c1)N1CCN(c2ccccc2O)CC1 tested on Cholinesterase (Equus caballus, UniProt P81908).
Given back: 3.55

* * *

- experimental-system: Cholinesterase (Equus caballus)
- assay-info: Inhibition of equine serum BChE using butyrylthiocholine iodide as substrate by spectrophotometer analysis
Overview of recorded IC50 for various compounds
Respond numerically; units are µM and should not be typed.

Example compounds with recorded IC50:
compound-structure	IC50 (µM)
O=C(CCCOc1ccc2ccc(=O)oc2c1)N1CCN(c2ccc(F)cc2)CC1	75
O=C(CCCOc1ccc2ccc(=O)oc2c1)N1CCN(c2ccccc2F)CC1	15

Let's switch to this compound now.
Asked: Please indicate recorded IC50 of Cc1cc(=O)oc2cc(OCCCC(=O)N3CCN(c4ccccc4)CC3)ccc12 measured with Cholinesterase (Equus caballus).
Given back: 68

Entry source: ChEMBL document CHEMBL3286322
